pKi: −log10 of the molar value.
Observed pKi for Cannabinoid receptor 1 (Homo sapiens, UniProt P21554), reported per entry below.

Reference set (5 entries):
1. CCCCCn1cc(C(=O)NC2CCCCCC2)c(=O)n2nc(-c3ccco3)cc12: < 5.00
2. CCCCCn1cc(C(=O)NC23CC4CC(CC(C4)C2)C3)c(=O)n2nc(C)c(Br)c12: < 5.00
3. CCCCCn1cc(C(=O)NC23CC4CC(CC(C4)C2)C3)c(=O)n2nc(-c3ccc(Cl)cc3)cc12: < 5.00
4. CCCCCn1cc(C(=O)NC2CCCCC2)c(=O)n2nc(CC)cc12: 6.38
5. CCCCCn1cc(C(=O)NC23CC4CC(CC(C4)C2)C3)c(=O)n2nc(C(C)(C)C)cc12: 6.21

Problem: What is its pKi for Cannabinoid receptor 1 (Homo sapiens, UniProt P21554)? Entry: "CCCCCn1cc(C(=O)NC23CC4CC(CC(C4)C2)C3)c(=O)n2nc(C)c(-c3ccc(OC)cc3)c12"
Solution: < 5.00

Problem: What is its pKi for Cannabinoid receptor 1 (Homo sapiens, UniProt P21554)? Entry: "CCCCCn1cc(C(=O)NC2CCCCCC2)c(=O)n2nc(-c3ccccc3C)cc12"
Solution: < 5.00

Problem: What is its pKi for Cannabinoid receptor 1 (Homo sapiens, UniProt P21554)? Entry: "CCCCCn1cc(C(=O)NC23CC4CC(CC(C4)C2)C3)c(=O)n2nc(-c3ccccc3Cl)cc12"
Solution: < 5.00

Problem: What is its pKi for Cannabinoid receptor 1 (Homo sapiens, UniProt P21554)? Entry: "CCCCCn1cc(C(=O)NC2CCCCC2)c(=O)n2nc(C(C)(C)C)cc12"
Solution: 6.17
